- System: P. vulgatus RND KO;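 further: active when median AUC fell below 0.1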
- assay name: growth AUC normalised to DMSO control (median) (fraction of control); higher = less growth inhibition, active = hit call of the paper;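 active = normalised median growth AUC below 0.1 of DMSO control; inactive = AUC 0.1 or higher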
- measurement conditions: 20 µM
Counter-ions that a name gives are not always drawn.
Outcome codes: 1 for active, 0 for inactive

CCN(CC)CCNC(C(=O)OCCC(C)C)c1ccccc1 (stereo unspecified) [Camylofine chlorhydrate]; 0
CN1CCCC(CC2c3ccccc3Sc3ccccc32)C1 (stereo unspecified) [Metixene hydrochloride]; 0
C[N+]1(C)CCC(=C(c2ccccc2)c2ccccc2)CC1 [Diphemanil methylsulfate]; 0
CN(C)[C@@H]1C(=O)C(C(=O)NCNCCCC[C@H](N)C(=O)O)=C(O)[C@@]2(O)C(=O)C3=C(O)c4c(O)cccc4[C@@](C)(O)[C@H]3C[C@@H]12; 0
Cc1ccc(C(=O)c2cc(O)c(O)c([N+](=O)[O-])c2)cc1; 0
CCCN1CCCC[C@H]1C(=O)Nc1c(C)cccc1C [Ropivacaine hydrochloride]; 0
C#C[C@]1(O)CC[C@H]2[C@@H]3[C@H](C)CC4=C(CCC(=O)C4)[C@H]3CC[C@@]21C; 0
CN(C(=O)C(Cl)Cl)c1ccc(OC(=O)c2ccco2)cc1 [Diloxanide furoate]; 0
CN(C)CCOC(c1ccccc1)c1ccccc1.Cn1c(=O)c2[nH]c(Cl)nc2n(C)c1=O [Dimenhydrinate]; 0
C[C@@H]1CCO[C@H]2Cn3cc(C(=O)NCc4ccc(F)cc4F)c(=O)c(O)c3C(=O)N12; 1
NCCCC[C@H](N[C@@H](CCc1ccccc1)C(=O)O)C(=O)N1CCC[C@H]1C(=O)O; 0
CC(C)c1nc(CN(C)C(=O)N[C@H](C(=O)N[C@@H](Cc2ccccc2)C[C@H](O)[C@H](Cc2ccccc2)NC(=O)OCc2cncs2)C(C)C)cs1; 0
CN(C)CCC=C1c2ccccc2COc2ccccc21 [Doxepin hydrochloride]; 0
C[C@H]1O[C@@H](O[C@H]2[C@@H](O)C[C@H](O[C@H]3[C@@H](O)C[C@H](O[C@H]4CC[C@@]5(C)[C@H](CC[C@@H]6[C@@H]5C[C@@H](O)[C@]5(C)[C@@H](C7=CC(=O)OC7)CC[C@]65O)C4)O[C@@H]3C)O[C@@H]2C)C[C@H](O)[C@@H]1O; 0
CS(=O)(=O)CCNCc1ccc(-c2ccc3ncnc(Nc4ccc(OCc5cccc(F)c5)c(Cl)c4)c3c2)o1; 0
CNC(=O)OCc1cccc(COC(=O)NC)n1 [Pyricarbate]; 0
CC1=Nc2ccc(Cl)cc2S(=O)(=O)N1 [Diazoxide]; 0
Cc1cnc(C(=O)O)c[n+]1[O-]; 0
CC[C@@H]1C(=O)OC[C@@H]1Cc1cncn1C [Pilocarpine nitrate]; 0
Cn1c(=O)c2nc[nH]c2n(C)c1=O [Theophylline monohydrate]; 0
COc1cccc2c1C(=O)c1c(O)c3c(c(O)c1C2=O)C[C@@](O)(C(=O)CO)C[C@@H]3O[C@H]1C[C@H](N)[C@@H](O)[C@H](C)O1 [Epirubicin hydrochloride]; 0
CCCCNC(=O)NS(=O)(=O)c1ccc(C)cc1 [Tolbutamide]; 0
CNS(=O)(=O)Cc1ccc2[nH]cc(CCN(C)C)c2c1 [Sumatriptan succinate]; 0
CN(C)CCN1C(=O)c2ccccc2N(C)c2ccccc21 [Dibenzepine hydrochloride]; 0
NS(=O)(=O)c1cc(C(=O)O)c(NCc2ccco2)cc1Cl [Furosemide]; 0
Cn1c(=O)c2c(ncn2CC(O)CO)n(C)c1=O (stereo unspecified); 0
